// data source = patent US8008492B2

ASSAY INFO: Parallel artificial membrane permeability assay (PAMPA)
Format: in vitro ADME, porcine
EXPERIMENTAL CONTEXT: baicalin constructs; 200 μM initial, pH 7.4, 4 hours, room temperature
READOUT TYPE: Log Pe
Reply with just the number.

compound="CN1C(=O)C(Cc2ccc(NC(=O)C3OC(Oc4cc5oc(-c6ccccc6)cc(=O)c5c(O)c4O)C(O)C(O)C3O)cc2)NC(=O)C1CC1CCCCC1 (stereo not drawn)" value_observed=−6.4
compound="CN1C(=O)C(Cc2ccc(NC(=O)C3OC(Oc4cc5oc(-c6ccccc6)cc(=O)c5c(O)c4O)C(O)C(O)C3O)cc2)NC(=O)C1CCc1ccccc1 (stereo not drawn)" value_observed=−9.3

Let us move to another entry and its Log Pe.
// query Log Pe lookup needed for CN1C(=O)C(Cc2ccc(NC(=O)C3OC(Oc4cc5oc(-c6ccccc6)cc(=O)c5c(O)c4O)C(O)C(O)C3O)cc2)NC(=O)C1Cc1ccc2ccc3cccc4ccc1c2c34 (stereo not drawn) , thanks.
// result −8.7

----------
ASSAY INFO: Immobilized artificial membrane chromatography (IAMC)
Type: physicochemical
EXPERIMENTAL CONTEXT: dopamine constructs; isocratic, phosphate buffer pH 7.4 and 20% MeCN
READOUT TYPE: Capacity factor kIAM
Reply with just the number.

compound="CN1C(=O)C(Cc2ccc(NCC(=O)NCCc3ccc(O)c(O)c3)cc2)NC(=O)C1CCc1ccccc1 (stereo not shown)" value_observed=3.15

// query Capacity factor kIAM lookup needed for CCCCCCC1C(=O)NC(Cc2ccc(NCC(=O)NCCc3ccc(O)c(O)c3)cc2)C(=O)N1C (stereo not shown) , thanks.
// result 15.47

// query Now the compound CN1C(=O)C(Cc2ccc(NCC(=O)NCCc3ccc(O)c(O)c3)cc2)NC(=O)C1Cc1ccc2ccccc2c1 (stereo not shown)
// result 16.14

// query Now the compound CN1C(=O)C(Cc2ccc(NCC(=O)NCCc3ccc(O)c(O)c3)cc2)NC(=O)C1CC1CCCCC1 (stereo not shown)
// result 0.86

// query Now the compound NCCc1ccc(O)c(O)c1 [Dopamine, dopamine, reference compound]
// result 0.30

// query Now the compound CN1C(=O)C(Cc2ccc(NCC(=O)NCCc3ccc(O)c(O)c3)cc2)NC(=O)C1Cc1ccccc1 (stereo not shown)
// result 3.54
